# STUDY TARGET: rat FAAH (Fatty Acid Amide Hydrolase) (Rattus norvegicus, UniProt P97612)
# Sequence (P97612 whole entry): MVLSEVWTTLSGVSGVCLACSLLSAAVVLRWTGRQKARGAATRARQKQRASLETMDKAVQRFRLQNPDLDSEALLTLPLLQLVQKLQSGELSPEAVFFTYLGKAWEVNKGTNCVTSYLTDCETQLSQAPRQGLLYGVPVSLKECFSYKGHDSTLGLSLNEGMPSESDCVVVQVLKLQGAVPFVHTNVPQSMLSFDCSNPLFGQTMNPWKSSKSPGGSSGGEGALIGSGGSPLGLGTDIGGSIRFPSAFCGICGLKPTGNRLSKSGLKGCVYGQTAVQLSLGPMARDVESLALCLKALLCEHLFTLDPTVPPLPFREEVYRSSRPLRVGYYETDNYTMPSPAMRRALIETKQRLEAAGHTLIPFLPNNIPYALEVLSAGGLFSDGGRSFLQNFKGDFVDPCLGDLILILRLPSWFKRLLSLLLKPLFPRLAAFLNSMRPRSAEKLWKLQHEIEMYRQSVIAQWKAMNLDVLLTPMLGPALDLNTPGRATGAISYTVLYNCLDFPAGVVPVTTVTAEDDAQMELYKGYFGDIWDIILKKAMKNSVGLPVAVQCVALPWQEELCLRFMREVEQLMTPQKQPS
# PROTOCOL DETAILS: FAAH whole cell assay, CHO cells expressing rat FAAH
# Excerpt: To assist in assay development stable cell lines for human, murine and rat full length FAAH were developed. Human FAAH cDNA (Accession No: NM_001441.1) was purchased from Origene (Rockville, Md.). The full length FAAH was subcloned into the mammalian expression vector, pcDEF.neo, using XbaI and EcoRI restriction sites and used for stable cell line generation. […]
PARAMETER: IC50

Solved entries:
>>> df
                                   compound  measurement
0  CS(=O)(=O)c1ccc(-c2nc(-c3ccc(F)cc3)oc2Sc2ccc(Cl)cn2)cn1        17 nM
1  CC(C)(O)c1csc(-c2nc(-c3ccc(F)cc3)oc2Sc2ccc(Cl)cn2)n1        39 nM
2  CC(C)(O)c1ccc(-c2nc(-c3ccc(F)cc3)oc2Sc2ccc(Cl)cn2)cn1        13 nM
3  CC(C)(O)c1ccc(-c2nc(-c3cncc(Cl)c3)oc2Sc2ccc(Cl)cn2)cn1        20 nM
4  CC(C)(O)c1ncc(-c2nc(-c3ccc(F)cc3)oc2Sc2ccc(Cl)cn2)cn1        34 nM
5  C[S+]([O-])c1ccc(-c2nc(-c3ccc(F)cc3)oc2Sc2ccc(Cl)cn2)cn1 (racemic)        17 nM
6  CC(C)(O)c1ccc(-c2nc(-c3ccccn3)oc2Sc2ccc(F)cn2)cn1       680 nM

Q: Hi! What's the reported IC50 for `CS(=O)(=O)c1ccc(-c2nc(-c3ccc(F)cc3)oc2Sc2ccc(Cl)cn2)cc1` on rat FAAH (Fatty Acid Amide Hydrolase) (Rattus norvegicus, UniProt P97612)?
A: 39 nM

====

In this section, each of the compounds is paired with its reported pIC50.
# STUDY TARGET: human FAAH (Fatty Acid Amide Hydrolase) (Homo sapiens, UniProt O00519)
# Construct: The full length FAAH was subcloned into the mammalian expression vector, pcDEF.neo
# Sequence (O00519 1-579): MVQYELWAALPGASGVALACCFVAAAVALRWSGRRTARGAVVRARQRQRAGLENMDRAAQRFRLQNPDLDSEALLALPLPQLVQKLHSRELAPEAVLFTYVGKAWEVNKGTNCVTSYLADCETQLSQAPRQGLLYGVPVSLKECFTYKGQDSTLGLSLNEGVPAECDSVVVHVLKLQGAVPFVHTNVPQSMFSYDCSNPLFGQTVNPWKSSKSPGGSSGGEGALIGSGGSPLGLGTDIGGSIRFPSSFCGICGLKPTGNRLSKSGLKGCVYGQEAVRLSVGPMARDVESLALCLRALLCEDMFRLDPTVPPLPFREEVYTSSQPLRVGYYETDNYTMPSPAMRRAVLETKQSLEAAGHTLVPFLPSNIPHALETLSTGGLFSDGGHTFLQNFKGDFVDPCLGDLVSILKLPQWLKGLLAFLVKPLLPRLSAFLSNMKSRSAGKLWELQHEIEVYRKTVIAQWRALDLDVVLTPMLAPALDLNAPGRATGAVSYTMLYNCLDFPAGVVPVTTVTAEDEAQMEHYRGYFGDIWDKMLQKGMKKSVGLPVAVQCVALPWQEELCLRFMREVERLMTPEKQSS
# PROTOCOL DETAILS: FAAH enzyme assay on lysate of CHO cells expressing human FAAH
# Assay type: biochemical
// returns pIC50 (minus log10 of molar concentration), number only

Q: pIC50 lookup needed for C[S+]([O-])c1ccc(-c2nc(-c3ccc(F)cc3)oc2Sc2ccc(Cl)cn2)cn1 (racemic) , thanks.
A: 8.30

Q: pIC50 lookup needed for `CC(C)(O)c1cnc(-c2nc(-c3ccc(F)cc3)oc2Sc2ccc(Cl)cn2)cn1` , thanks.
A: 7.64

Q: pIC50 lookup needed for `CC(C)(O)c1ccc(-c2nc(-c3ccc(F)cc3)oc2Sc2ncc(Cl)cn2)cn1` , thanks.
A: 7.37

Q: pIC50 lookup needed for `CCn1cc(-c2nc(-c3ccc(C(C)(C)O)nc3)c(Sc3ccc(Cl)cc3)o2)cn1` , thanks.
A: 7.96

Q: pIC50 lookup needed for `CS(=O)(=O)c1ccc(-c2nc(-c3ccccn3)oc2Sc2ccc(Cl)cc2)cc1` , thanks.
A: 7.82
